Target: CYP2D6 (Homo sapiens, UniProt P10635)
Sequence (P10635 whole entry): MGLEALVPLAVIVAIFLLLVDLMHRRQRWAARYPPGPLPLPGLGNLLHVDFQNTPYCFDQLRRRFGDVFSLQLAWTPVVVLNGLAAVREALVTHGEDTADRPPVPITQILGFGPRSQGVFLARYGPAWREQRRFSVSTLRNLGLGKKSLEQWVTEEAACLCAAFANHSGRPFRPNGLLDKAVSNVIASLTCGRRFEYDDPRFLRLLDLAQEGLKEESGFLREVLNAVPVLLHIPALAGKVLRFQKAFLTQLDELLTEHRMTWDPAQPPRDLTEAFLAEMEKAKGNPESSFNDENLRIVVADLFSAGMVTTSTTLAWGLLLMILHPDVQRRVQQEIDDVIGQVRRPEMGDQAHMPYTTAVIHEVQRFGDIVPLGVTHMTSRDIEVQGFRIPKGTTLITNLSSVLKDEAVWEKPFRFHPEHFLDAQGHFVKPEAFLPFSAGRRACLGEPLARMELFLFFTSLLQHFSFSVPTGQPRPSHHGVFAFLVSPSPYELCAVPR
Test: in vitro
Conditions: CYP2D6 (% inhibition)
Each entry below carries its recorded inhibition at 450 min, 10 µM.
Only the number, expressed in %, is required.

Sample records with inhibition at 450 min, 10 µM:
# compound, inhibition at 450 min, 10 µM [%]
rows = [
    ("COc1c(C)cc2c(c1O)[C@@H]1C3[C@@H]4SC[C@]5(NCCc6c5[nH]c5ccc(OCc7ccccc7)cc65)C(=O)COC[C@@H](c5c6c(c(C)c(OC(C)=O)c54)OCO6)N3[C@@H](O)[C@H](C2)N1C (some centres unmarked) [Compound 29]", 27),
    ("COc1c(C)cc2c(c1O)[C@@H]1C3[C@@H]4SC[C@]5(NCCc6c5[nH]c5c(OCc7ccccc7)cccc65)C(=O)COC[C@@H](c5c6c(c(C)c(OC(C)=O)c54)OCO6)N3[C@@H](O)[C@H](C2)N1C (some centres unmarked) [Compound 28]", 34),
    ("COc1c(C)cc2c(c1O)[C@@H]1C3[C@@H]4SC[C@]5(NCCc6c5[nH]c5cc(F)ccc65)C(=O)COC[C@@H](c5c6c(c(C)c(OC(C)=O)c54)OCO6)N3[C@@H](O)[C@H](C2)N1C (some centres unmarked) [Compound 32]", 12),
]

### Prompt Item under review: C=COC(=O)Oc1c(OC)c(C)cc2c1[C@@H]1C3[C@@H]4SC[C@]5(NCCc6c5[nH]c5ccccc65)C(=O)COC[C@@H](c5c6c(c(C)c(OC(C)=O)c54)OCO6)N3[C@@H](O)[C@H](C2)N1C (some centres unmarked) [Compound 47] . Reported inhibition at 450 min, 10 µM?
### Response 10

### Prompt Same for COc1c(C)cc2c(c1O)[C@@H]1C3[C@@H]4SC[C@]5(NC(C)Cc6c5[nH]c5ccc(F)cc65)C(=O)COC[C@@H](c5c6c(c(C)c(OC(C)=O)c54)OCO6)N3[C@@H](O)[C@H](C2)N1C (some centres unmarked) [Compound 41]
### Response 16

### Prompt Same for COc1c(C)cc2c(c1O)[C@@H]1C3[C@@H]4SC[C@]5(NCCc6c5[nH]c5c(C)cccc65)C(=O)COC[C@@H](c5c6c(c(C)c(OC(C)=O)c54)OCO6)N3[C@@H](O)[C@H](C2)N1C (some centres unmarked) [Compound 36]
### Response 15

### Prompt Same for COc1c(C)cc2c(c1O)[C@@H]1C3[C@@H]4SC[C@]5(NC(C)Cc6c5[nH]c5ccccc65)C(=O)COC[C@@H](c5c6c(c(C)c(OC(C)=O)c54)OCO6)N3[C@@H](O)[C@H](C2)N1C (some centres unmarked) [Compound 44]
### Response 16
